Source: ChEMBL document CHEMBL4420078

Target: Son of sevenless homolog 1 (Homo sapiens, UniProt Q07889)
Sequence (Q07889 whole entry, the tested form may be a part): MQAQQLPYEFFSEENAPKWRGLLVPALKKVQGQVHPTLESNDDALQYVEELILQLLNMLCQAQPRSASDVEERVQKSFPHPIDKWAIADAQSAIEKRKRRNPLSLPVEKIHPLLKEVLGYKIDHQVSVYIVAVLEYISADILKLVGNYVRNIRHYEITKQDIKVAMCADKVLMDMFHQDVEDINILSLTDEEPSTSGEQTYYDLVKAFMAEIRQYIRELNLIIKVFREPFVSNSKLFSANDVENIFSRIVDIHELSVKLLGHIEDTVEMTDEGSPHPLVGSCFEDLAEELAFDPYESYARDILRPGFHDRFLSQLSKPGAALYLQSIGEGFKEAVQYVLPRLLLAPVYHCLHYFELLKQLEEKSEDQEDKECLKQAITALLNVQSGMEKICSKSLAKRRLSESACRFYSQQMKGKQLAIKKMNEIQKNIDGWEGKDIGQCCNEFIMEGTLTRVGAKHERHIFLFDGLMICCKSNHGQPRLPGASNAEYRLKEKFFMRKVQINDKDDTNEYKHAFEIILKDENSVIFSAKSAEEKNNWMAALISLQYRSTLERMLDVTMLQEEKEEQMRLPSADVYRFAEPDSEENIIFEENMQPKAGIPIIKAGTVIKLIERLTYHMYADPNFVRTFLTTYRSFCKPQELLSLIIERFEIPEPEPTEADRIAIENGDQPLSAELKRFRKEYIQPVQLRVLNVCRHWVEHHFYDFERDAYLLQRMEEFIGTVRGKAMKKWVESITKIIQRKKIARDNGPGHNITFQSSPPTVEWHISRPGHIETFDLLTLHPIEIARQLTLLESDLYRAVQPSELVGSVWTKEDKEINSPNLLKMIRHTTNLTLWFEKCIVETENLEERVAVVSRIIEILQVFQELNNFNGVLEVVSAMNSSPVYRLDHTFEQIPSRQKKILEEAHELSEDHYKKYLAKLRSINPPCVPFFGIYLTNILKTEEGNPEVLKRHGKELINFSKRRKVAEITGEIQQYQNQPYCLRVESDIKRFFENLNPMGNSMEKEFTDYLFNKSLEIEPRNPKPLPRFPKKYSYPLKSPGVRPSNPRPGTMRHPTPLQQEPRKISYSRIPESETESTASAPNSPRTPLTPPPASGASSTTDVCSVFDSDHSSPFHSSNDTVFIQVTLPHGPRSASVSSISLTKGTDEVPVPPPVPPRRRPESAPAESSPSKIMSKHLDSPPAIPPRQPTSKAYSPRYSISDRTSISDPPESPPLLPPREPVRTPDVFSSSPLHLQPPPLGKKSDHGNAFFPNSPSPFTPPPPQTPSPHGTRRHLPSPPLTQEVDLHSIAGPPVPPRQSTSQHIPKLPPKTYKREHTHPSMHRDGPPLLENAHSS
Assay: Binding affinity to N-terminal 6x-His-tagged recombinant human SOS1 catalytic domain (residues 564 to 1049 residues) expressed in Escherichia coli BL21 (DE3) assessed as reduction in N-terminal-GST-tagged H-Ras (1 to 166 residues) binding to NT-647 lysine-labeled purified SOS1 catalytic domain by competitive microscale thermophoresis analysis
Endpoint Name: pKd
By convention, pKd is the negative base-10 log of a molar concentration.

If you can, please state the reported pKd value of NS(=O)(=O)c1ccc2c(c1)/C(=N\Nc1ccccc1)C(=O)C=C2 .
3.59

* * *

Target: UniProt Q07889
Experiment: Binding affinity to N-terminal 6x-His-tagged recombinant human SOS1 catalytic domain (residues 564 to 1049 residues) expressed in Escherichia coli BL21 (DE3) assessed as reduction in N-terminal-GST-tagged H-Ras (1 to 166 residues) binding to NT-647 cysteine-labeled purified SOS1 catalytic domain by competitive microscale thermophoresis analysis
Endpoint Name: pKd
Scale note: pKd = -log10(concentration in M).

Give UniProt Q07889 pKd for NS(=O)(=O)c1ccc2c(c1)/C(=N\Nc1ccccc1)C(=O)C=C2
3.80
